- targetDesc: Interleukin-1 receptor-associated kinase 4 (Homo sapiens, UniProt Q9NWZ3)
- Sequence (Q9NWZ3 whole entry): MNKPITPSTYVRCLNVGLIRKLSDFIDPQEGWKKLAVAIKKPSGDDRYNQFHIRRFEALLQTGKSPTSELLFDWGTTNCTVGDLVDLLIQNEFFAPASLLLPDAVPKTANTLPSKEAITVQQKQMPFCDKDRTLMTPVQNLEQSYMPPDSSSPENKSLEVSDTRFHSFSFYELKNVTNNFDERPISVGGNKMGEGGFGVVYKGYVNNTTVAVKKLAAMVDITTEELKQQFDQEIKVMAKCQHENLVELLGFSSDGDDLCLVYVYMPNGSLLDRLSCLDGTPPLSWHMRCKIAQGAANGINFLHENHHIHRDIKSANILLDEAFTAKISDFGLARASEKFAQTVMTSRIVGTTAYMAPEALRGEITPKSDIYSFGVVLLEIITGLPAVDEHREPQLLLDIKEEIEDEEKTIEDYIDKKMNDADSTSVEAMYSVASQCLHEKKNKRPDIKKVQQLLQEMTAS
- assayDetails: Inhibition of human recombinant IRAK4 assessed as unphosphorylated KKARFSRFAGSSPSQSSMVAR peptide substrate measured after 2 hrs by LC-MS/MS analysis
experimentalReadout: pIC50
Formally, pIC50 is defined as -log10 of the concentration c, with c in mol/L.

// worked examples, pIC50 included
{"molecule": "C[C@H]1C[C@@H](n2cc(Nc3nc(NC4(C)CC4)c4c(=O)n(C)ccc4n3)cn2)CCN1C (relative stereo)", "pIC50": 9.22}
{"molecule": "CN1C[C@H]2C[C@@H]1C[C@@H]2n1cc(Nc2nc(NC3(C)CC3)c3c(=O)n(C)ccc3n2)cn1", "pIC50": 7.80}
{"molecule": "C[C@H](F)Cn1ccc2nc(Nc3cnn(C4CCN(C)CC4)c3)nc(NC3(C)CC3)c2c1=O", "pIC50": 8.70}
{"molecule": "CN1CC2(CC(n3cc(Nc4nc(NC5(C)CC5)c5c(=O)n(-c6cn(C)nn6)ccc5n4)cn3)C2)C1", "pIC50": 7.82}
{"molecule": "CN1CCC(n2cc(Nc3nc(NC4(C)CC4)c4c(=O)n(-c5cncnc5)ccc4n3)cn2)CC1", "pIC50": 8.40}
{"molecule": "Cn1cc(Nc2nc(NC3(C)CC3)c3c(=O)n(C)ccc3n2)cn1", "pIC50": 8.10}

Query block: Need pIC50 of C[C@H](F)Cn1ccc2nc(Nc3cnn([C@H]4C[C@H]5C[C@@H]4CN5C)c3)nc(NC3(C)CC3)c2c1=O , thanks.
Result block: 8.52

Query block: Entry CN1CCC(n2cc(Nc3nc(NC4(C)CC4)c4c(=O)n(C5CC5)ccc4n3)cn2)CC1 has what pIC50?
Result block: 8.40

###

pIC50 listing for selected molecules.
- targetDesc: Interleukin-1 receptor-associated kinase 4 (Homo sapiens, UniProt Q9NWZ3)
- assayDetails: Inhibition of IRAK4 in IL1-stimulated human KARPAS-299 cells assessed as fluorescence intensity
- Assay type: cell-based
Field pIC50 (float): negative decimal logarithm of the concentration in molar.

These recorded examples may help you get a feel for the data.
{"molecule": "COC(=O)N1CCN([C@H]2CC[C@H](Nc3nc(Nc4cnn(C)c4)nc4ccc(C)nc34)CC2)CC1", "measuredValue": 6.74}
{"molecule": "C[C@@H]1C[C@@H](n2cc(Nc3nc(NC4(C)CC4)c4c(=O)n(C)ccc4n3)cn2)CCN1C (racemic)", "measuredValue": 7.30}
{"molecule": "COC(=O)N1CCN([C@H]2CC[C@H](Nc3nc(Nc4cnn(C)c4)nc4ccn(CC#N)c(=O)c34)CC2)CC1", "measuredValue": 6.36}
{"molecule": "C[C@H](CF)n1ccc2nc(Nc3cnn(C4CCN(C)CC4)c3)nc(NC3(C)CC3)c2c1=O", "measuredValue": 6.77}
{"molecule": "C[C@@H](F)Cn1ccc2nc(Nc3cnn(C4CCN(C)CC4)c3)nc(NC3(C)CC3)c2c1=O", "measuredValue": 6.96}

Query block: Requested read-out: pIC50. Entry: CN1C[C@@H]2C[C@H]1C[C@@H]2n1cc(Nc2nc(NC3(C)CC3)c3c(=O)n(C)ccc3n2)cn1
Result block: 7.05

Query block: Which measured pIC50 value corresponds to CN1CCC(n2cc(Nc3nc(NC4(C)CC4)c4c(=O)n(C(F)F)ccc4n3)cn2)CC1 ?
Result block: 6.77

Query block: Fill in: pIC50 of CN1CCC(n2cc(Nc3nc(NC4(C)CC4)c4c(=O)n(-c5cn(C)nn5)ccc4n3)cn2)CC1 is ___
Result block: 6.74

Query block: Form field: reported pIC50 of CN1CCC(n2cc(Nc3nc(NC4(C)CC4)c4c(=O)n(-c5cnn[nH]5)ccc4n3)cn2)CC1
Result block: 7.16

Query block: Recorded pIC50 for CN1C[C@H]2C[C@@H]1C[C@@H]2n1cc(Nc2nc(NC3(C)CC3)c3c(=O)n(CC(F)F)ccc3n2)cn1 , please?
Result block: 6.82

Query block: Endpoint output: pIC50 of CC(=O)N1CCC(n2cc(Nc3nc(NC4(C)CC4)c4c(=O)n(C)ccc4n3)cn2)CC1 . Value?
Result block: 7.31

Query block: pIC50 for Cn1cc(Nc2nc(NC3(C)CC3)c3c(=O)n(C)ccc3n2)cn1 ?
Result block: 6.72

Query block: What measured pIC50 goes with CN1CCC(n2cc(Nc3nc(NC4(C)CC4)c4c(=O)n(-c5nnc[nH]5)ccc4n3)cn2)CC1 ?
Result block: 6.49

Query block: Would you mind telling me what pIC50 value was observed for CN1CC2(CC(n3cc(Nc4nc(NC5(C)CC5)c5c(=O)n(C)ccc5n4)cn3)C2)C1 ?
Result block: 7.48

Query block: Using the record for C[C@H](F)Cn1ccc2nc(Nc3cnn(C4CC5(C4)CN(C)C5)c3)nc(NC3(C)CC3)c2c1=O , report its pIC50.
Result block: 6.92

Query block: Name the reported pIC50 value associated with the molecule CN1CC[C@H](n2cc(Nc3nc(NC4(C)CC4)c4c(=O)n(C)ccc4n3)cn2)[C@@H](F)C1 (racemic)
Result block: 7.35

###

- assayDetails: Metabolic stability in human liver microsomes assessed as intrinsic clearance
- Type: ADME
experimentalReadout: CLint (µL/min/mg)
Output spec: scalar in µL/min/mg, unitless text.

{"smilesRecord": "CN1C[C@H]2C[C@@H]1C[C@@H]2n1cc(Nc2nc(NC3(C)CC3)c3c(=O)n(CC(F)F)ccc3n2)cn1", "experimentalReadout": "CLint", "measuredValue": 23}
{"smilesRecord": "CN1CCC(n2cc(Nc3nc(NC4(C)CC4)c4c(=O)n(-c5nnc[nH]5)ccc4n3)cn2)CC1", "experimentalReadout": "CLint", "measuredValue": 4.7}
{"smilesRecord": "CC(C)n1ccc2nc(Nc3cnn(C4CCN(C)CC4)c3)nc(NC3(C)CC3)c2c1=O", "experimentalReadout": "CLint", "measuredValue": 32}

Query block: Query: CLint; subject: C[C@H](CF)n1ccc2nc(Nc3cnn(C4CCN(C)CC4)c3)nc(NC3(C)CC3)c2c1=O
Result block: 47

###

Recorded Papp A→B by entry
- assayDetails: Intrinsic permeability across apical to basolateral side in human Caco-2 cells
- Format: ADME, cell-based
Your answer is read as ×10⁻⁶ cm/s, so omit the unit and give the number.

Field: example entries. Status: answers known.
{"smilesRecord": "CN1CC2(CC(n3cc(Nc4nc(NC5(C)CC5)c5c(=O)n(CC(F)F)ccc5n4)cn3)C2)C1", "Papp A→B (×10⁻⁶ cm/s)": 12}
{"smilesRecord": "CN(C)C(=O)CN1CCC(n2cc(Nc3nc(NC4(C)CC4)c4c(=O)n(C)ccc4n3)cn2)CC1", "Papp A→B (×10⁻⁶ cm/s)": 15}

Query block: Recorded Papp A→B for CN1CCC(n2cc(Nc3nc(NC4(C)CC4)c4c(=O)n(-c5cn(C)nn5)ccc4n3)cn2)CC1 , please?
Result block: 21

Query block: Record request: Papp A→B value, item C[C@H](F)Cn1ccc2nc(Nc3cnn(C4CC5(C4)CN(C)C5)c3)nc(NC3(C)CC3)c2c1=O
Result block: 17

###

- assayDetails: Aqueous solubility of compound
- Format: physicochemical
- experimentalConditions: buffer
experimentalReadout: solubility (µM)
Please reply with the bare figure in µM and do not write the unit itself.

Query block: So what does the record say about solubility for C[C@H](F)Cn1ccc2nc(Nc3cnn(C4CC5(C4)CN(C)C5)c3)nc(NC3(C)CC3)c2c1=O ?
Result block: 890

###

Reported Papp A→B values follow for various compounds
- assayDetails: Intrinsic permeability across apical to basolateral side in human Caco-2 cells
- Format: ADME, cell-based
Please respond with the number in nm/s and leave the unit unwritten.

Example results:
{"smilesRecord": "CC(=O)N1CCC(n2cc(Nc3nc(NC4(C)CC4)c4c(=O)n(C)ccc4n3)cn2)CC1", "Papp A→B, nm/s": 480}
{"smilesRecord": "COC(=O)N1CCN([C@H]2CC[C@H](Nc3nc(Nc4cnn(C)c4)nc4ccn(C)c(=O)c34)CC2)CC1", "Papp A→B, nm/s": 170}
{"smilesRecord": "CN1CC2(CC(n3cc(Nc4nc(NC5(C)CC5)c5c(=O)n(C)ccc5n4)cn3)C2)C1", "Papp A→B, nm/s": 57}
{"smilesRecord": "CN1CCC(n2cc(Nc3nc(NC4(C)CC4)c4c(=O)n(-c5nnc[nH]5)ccc4n3)cn2)CC1", "Papp A→B, nm/s": 160}
{"smilesRecord": "COC(=O)N1CCN([C@H]2CC[C@H](Nc3nc(Nc4cnn(C)c4)nc4ccc(C)nc34)CC2)CC1", "Papp A→B, nm/s": 79}
{"smilesRecord": "CN1CCC(n2cc(Nc3nc(NC4(C)CC4)c4c(=O)n(C)ccc4n3)cn2)CC1", "Papp A→B, nm/s": 170}

Query block: What value of measured Papp A→B is listed for CN(C)CC(=O)N1CCC(n2cc(Nc3nc(NC4(C)CC4)c4c(=O)n(C)ccc4n3)cn2)CC1 ?
Result block: 43

Query block: Query (compound): Cn1cc(Nc2nc(NC3(C)CC3)c3c(=O)n(C)ccc3n2)cn1 ; field requested: Papp A→B
Result block: 670

Query block: Field request: Papp A→B | item: CN1CCC(n2cc(Nc3nc(NC4(C)CC4)c4c(=O)n(-c5cnn[nH]5)ccc4n3)cn2)CC1
Result block: 33
